# System: Alopecurus myosuroides (ALOMY)
# run-description: Glasshouse herbicide test, pre- and post-emergence, Alopecurus myosuroides
# Type: in vivo
# condition-label: pre-emergence, 250 g/h, evaluated after 13 days
Each item that follows carries a reported ALOMY PRE, percentage damage caused to the plant (five point scale).

CC#Cc1ccc(C2=C(OC(C)=O)[C@@H]3[C@H](C2=O)[C@@H]2O[C@H]3C[C@@H]2COC)c(OC)c1 (racemic) [Compound 1.29]
5 (5=80-100%)
CC#Cc1ccc(C2C(=O)[C@@H]3[C@@H]4O[C@@H](C[C@H]4/C=N/OC)[C@@H]3C2=O)c(OC)c1 (mixture of isomers) [Compound 1.17]
5 (5=80-100%)
CC#Cc1ccc(C2C(=O)[C@H]3[C@@H]4CC[C@@](C)(O4)[C@H]3C2=O)c(OC)c1 (stereo partly shown) [Compound 1.22]
5 (5=80-100%)
CC#Cc1ccc(C2C(=O)[C@@H]3[C@H](C2=O)[C@@]2(C)CC[C@]3(C)O2)c(OC)c1 (stereo partly shown) [Compound 1.11]
5 (5=80-100%)
CC#Cc1ccc(C2C(=O)[C@@H]3[C@H](C2=O)[C@H]2CC[C@@H]3O2)c(OCCC)c1 (mixture of isomers) [Compound 1.31]
5 (5=80-100%)

Requested read-out ALOMY PRE, percentage damage caused to the plant (five point scale), target or system Alopecurus myosuroides (ALOMY), entry CC#Cc1ccc(C2C(=O)[C@H]3[C@@H]4CC[C@@](C)(O4)[C@H]3C2=O)c(OC)c1 (stereo partly shown) [Compound 1.21]
4 (4=60-79%)

Now give it for CC#Cc1ccc(C2C(=O)[C@@H]3[C@H](C2=O)[C@H]2C=C(C)[C@@H]3O2)c(OC)c1 (mixture of isomers) [Compound 1.16] too.
5 (5=80-100%)

###

Each item that follows carries a reported SETFA PRE, percentage damage caused to the plant (five point scale).
# Tested on: Setaria faberi (SETFA)
# run-description: Glasshouse herbicide test, pre- and post-emergence, Setaria faberi
# Type: in vivo
# condition-label: pre-emergence, 250 g/h, evaluated after 13 days

CC#Cc1ccc(C2=C(OC(=O)C(C)C)[C@@H]3[C@H](C2=O)[C@@H]2O[C@H]3C[C@@H]2COC)c(OC)c1 (racemic)
5 (5=80-100%)
CC#Cc1ccc(C2=C(OC(=O)C(C)(C)C)[C@@H]3[C@H](C2=O)[C@@H]2O[C@H]3C[C@@H]2COC)c(OC)c1 (racemic)
5 (5=80-100%)
CC#Cc1ccc(C2C(=O)[C@H]3[C@@H]4CC[C@@](C)(O4)[C@H]3C2=O)c(OC)c1 (stereo partly shown) [Compound 1.22]
5 (5=80-100%)
CC#Cc1ccc(C2C(=O)[C@@H]3[C@H](C2=O)[C@H]2CC[C@@H]3O2)c(OC)c1 (stereo partly shown)
5 (5=80-100%)

Query compound follows.
Using the record for CC#Cc1ccc(C2C(=O)[C@H]3[C@@H]4CC[C@@](C)(O4)[C@H]3C2=O)c(OC)c1 (stereo partly shown) [Compound 1.21] , report its SETFA PRE, percentage damage caused to the plant (five point scale).
4 (4=60-79%)

###

# System: Alopecurus myosuroides (ALOMY)
# run-description: Glasshouse herbicide test, pre- and post-emergence, Alopecurus myosuroides
# Type: in vivo
# condition-label: pre-emergence, 250 g/h, evaluated after 13 days
# Protocol: Seeds of a variety of test species are sown in standard soil in pots (Lolium perenne (LOLPE), Setaria faberi (SETFA), Alopecurus myosuroides (ALOMY), Echinochloa crus-galli (ECHCG), Avena fatua (AVEFA)). […] After 13 days for pre and post-emergence, the test is evaluated for the percentage damage caused to the plant. […]
test-readout: ALOMY PRE, percentage damage caused to the plant (five point scale)

Please review the following examples before continuing.
CC#Cc1ccc(C2C(=O)[C@@H]3[C@@H]4O[C@@H](C[C@H]4CC)[C@@H]3C2=O)c(OC)c1 (some centres unmarked) [Compound 1.23]
5 (5=80-100%)
CC#Cc1ccc(C2C(=O)[C@@H]3[C@@H]4O[C@@H](C[C@H]4COC)[C@@H]3C2=O)c(OC)c1 (mixture of isomers) [Compound 1.15]
5 (5=80-100%)
CC#Cc1ccc(C2C(=O)[C@@H]3[C@H](C2=O)[C@@H]2O[C@H]3C[C@]2(C)OC)c(OC)c1 (mixture of isomers) [Compound 1.33]
5 (5=80-100%)

Requested read-out ALOMY PRE, percentage damage caused to the plant (five point scale), target or system Alopecurus myosuroides (ALOMY), entry CC#Cc1ccc(C2=C(OC(=O)OC)[C@@H]3[C@H](C2=O)[C@@H]2O[C@H]3C[C@@H]2COC)c(OC)c1 (racemic) [Compound 1.28]
5 (5=80-100%)

Now give it for CC#Cc1ccc(C2=C(OC(=O)C(C)(C)C)[C@@H]3[C@H](C2=O)[C@@H]2O[C@H]3C[C@@H]2COC)c(OC)c1 (racemic) [Compound 1.26] too.
5 (5=80-100%)

###

Each item that follows carries a reported ALOMY POST, percentage damage caused to the plant (five point scale).
# Tested on: Alopecurus myosuroides (ALOMY)
# run-description: Glasshouse herbicide test, pre- and post-emergence, Alopecurus myosuroides
# Type: in vivo
# condition-label: post-emergence, 250 g/h, evaluated after 13 days

Please review the following examples before continuing.
CC#Cc1ccc(C2=C(OC(=O)C(C)C)[C@@H]3[C@H](C2=O)[C@@H]2O[C@H]3C[C@@H]2COC)c(OC)c1 (racemic)
5 (5=80-100%)
CC#Cc1ccc(C2C(=O)[C@@H]3[C@@H]4O[C@@H](C[C@H]4/C=N/OC)[C@@H]3C2=O)c(OC)c1 (mixture of isomers)
5 (5=80-100%)
CC#Cc1ccc(C2C(=O)[C@@H]3[C@H](C2=O)[C@H]2CC[C@@H]3O2)c(OCCOC)c1 (mixture of isomers)
4 (4=60-79%)
CC#Cc1ccc(C2=C(OC(=O)C(C)(C)C)[C@@H]3[C@H](C2=O)[C@@H]2O[C@H]3C[C@@H]2COC)c(OC)c1 (racemic)
5 (5=80-100%)

Using the record for CC#Cc1ccc(C2=C(OC(C)=O)[C@@H]3[C@H](C2=O)[C@@H]2O[C@H]3C[C@@H]2COC)c(OC)c1 (racemic) , report its ALOMY POST, percentage damage caused to the plant (five point scale).
5 (5=80-100%)

Now give it for CC#Cc1ccc(C2C(=O)[C@@H]3[C@H](C2=O)[C@H]2CC[C@@H]3O2)c(OCC)c1 (mixture of isomers) too.
5 (5=80-100%)

Now give it for CC#Cc1ccc(C2C(=O)[C@H]3[C@@H]4CC[C@@](C)(O4)[C@H]3C2=O)c(OC)c1 (mixture of isomers) [Compound 1.5] too.
5 (5=80-100%)

Now give it for CC#Cc1ccc(C2=C(OC(=O)OC)[C@@H]3[C@H](C2=O)[C@@H]2O[C@H]3C[C@@H]2COC)c(OC)c1 (racemic) too.
5 (5=80-100%)

Now give it for CC#Cc1ccc(C2C(=O)[C@@H]3[C@@H]4O[C@@H](C[C@@H]4COC)[C@@H]3C2=O)c(OC)c1 (mixture of isomers) [Compound 1.9] too.
5 (5=80-100%)

Now give it for CC#Cc1ccc(C2C(=O)[C@@H]3[C@@H]4O[C@@H](C[C@@H]4C4OCCO4)[C@@H]3C2=O)c(OC)c1 (mixture of isomers) too.
5 (5=80-100%)

Now give it for CC#Cc1ccc(C2C(=O)[C@@H]3[C@@H]4O[C@@H](C[C@@H]4CO)[C@@H]3C2=O)c(OC)c1 (mixture of isomers) too.
3 (3=40-59%)

Now give it for CC#Cc1ccc(C2C(=O)[C@@H]3[C@H](C2=O)[C@@]2(C)CC[C@]3(C)O2)c(OC)c1 (stereo partly drawn) too.
5 (5=80-100%)

Now give it for CC#Cc1ccc(C2C(=O)[C@@H]3[C@H](C2=O)[C@@H]2O[C@H]3C[C@]2(C)OC)c(OC)c1 (mixture of isomers) too.
5 (5=80-100%)

Now give it for CC#Cc1ccc(C2C(=O)[C@@H]3[C@@H]4O[C@@H](C[C@@H]4COC)[C@@H]3C2=O)c(OC)c1 (stereo in doubt) [Compound 1.19] too.
5 (5=80-100%)

Now give it for CC#Cc1ccc(C2C(=O)[C@@H]3[C@H](C2=O)[C@H]2CC[C@@H]3O2)c(OCCC)c1 (mixture of isomers) too.
5 (5=80-100%)

Now give it for CC#Cc1ccc(C2C(=O)[C@@H]3[C@@H]4O[C@@H](C[C@H]4COC)[C@@H]3C2=O)c(OC)c1 (mixture of isomers) too.
5 (5=80-100%)

Now give it for CC#Cc1ccc(C2C(=O)[C@@H]3[C@@H]4O[C@@H](C[C@H]4CC)[C@@H]3C2=O)c(OC)c1 (stereo partly drawn) too.
5 (5=80-100%)

Now give it for CC#Cc1ccc(C2C(=O)[C@@H]3[C@@H]4O[C@@H](C[C@@H]4OC)[C@@H]3C2=O)c(OC)c1 (mixture of isomers) too.
5 (5=80-100%)

Now give it for CC#Cc1ccc(C2C(=O)[C@H]3[C@@H]4CC[C@@](C)(O4)[C@H]3C2=O)c(OC)c1 (stereo partly drawn) [Compound 1.22] too.
5 (5=80-100%)

Now give it for CC#Cc1ccc(C2C(=O)[C@H]3[C@@H]4CC[C@@](COC)(O4)[C@H]3C2=O)c(OC)c1 (mixture of isomers) too.
5 (5=80-100%)
